Test: Quantitative highthroughput screen to assess conditional lethalithy of NOMO1 cells grown in RPMI1640 with untreated serum (RPMI+s) (AID 1963876); further: nearly all actives have a fitted effect of over 35% in size;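 on viability: 100% = DMSO wells and 0% = empty wells without cells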
Settings: NOMO1 AML cells in RPMI+serum, CellTiter-Glo viability, 48 h; series mostly up to 45.8 µM
Inconclusive results are not listed. Calls of active or inactive are those of the source. The call rests on the fitted dose curve; in most records, active means well fitted cell-killing curve with a large enough effect; inconclusive means small, poorly fitted or top-dose-only effect; inactive means flat fitted curve, though single readings scatter.
Outcomes you can answer with include only these: active, inactive

C[C@H]1[C@H](O)O[C@@H]2O[C@@]3(C)CC[C@@H]4[C@H](C)CC[C@@H]1[C@@]24OO3 :: active

[in] Query: recorded result category for C[C@H]1O[C@@H](n2cc(F)c(=O)[nH]c2=O)[C@H](O)[C@H]1O in this test
[out] inactive

[in] Given CC(=O)[C@]1(O)Cc2c(O)c3c(c(O)c2[C@@H](O[C@H]2C[C@H](N)[C@@H](O)[C@H](C)O2)C1)C(=O)c1ccccc1C3=O , state the outcome it received in this test.
[out] active

###

// Potency lookup, one value per entry
Assay: Cellular viability qHTS for adrenocortical cancer (ACC) cell line SW-13 (AID 1963989); further: potency means the concentration at half of the fitted maximal effect; nearly all actives have a fitted effect of over 65% in size
Conditions: SW-13 ACC cells viability, CellTiter-Glo, 48 h
Inconclusive results are not listed. Active and inactive are the calls of the source. The call rests on the fitted dose curve; in most records, active means well fitted cell-killing curve with a large enough effect; inconclusive means small, poorly fitted or top-dose-only effect; inactive means flat fitted curve, though single readings scatter.

Example molecules with recorded Potency:
CCc1nn(CCCN2CCN(c3cccc(Cl)c3)CC2)c(=O)n1CCOc1ccccc1 :: 14.6 µM (active)
CN(C)CCCOc1nn(Cc2ccccc2)c2ccccc12 :: 11.6 µM (active)
CC(C)(O)CS(=O)(=O)Nc1ccc2c(c1)CCN(C(=O)COc1cccnc1)C2 :: 0.282 µM (active)
COc1ccc(C=Cc2cc(OC)c(OC)c(OC)c2)cc1NC(=O)[C@H](N)CO :: 0.126 µM (active)

Kindly review the next molecule as well.
[in] Fill blank: measured Potency of the molecule Cc1c(C(=O)NN2CCCCC2)nn(-c2ccc(Cl)cc2Cl)c1-c1ccc(Cl)cc1 is ____.
[out] 28.2 µM (active)

###

Assay: Quantitative highthroughput screen to assess conditional lethalithy of NOMO1 cells grown in RPMI1640 with untreated serum (RPMI+s) (AID 1963876); further: nearly all actives have a fitted effect of over 35% in size;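 on viability: 100% = DMSO wells and 0% = empty wells without cells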
Conditions: NOMO1 AML cells in RPMI+serum, CellTiter-Glo viability, 48 h; series mostly up to 45.8 µM
Inconclusive results are not listed. Calls of active or inactive are those of the source. Calls come from the whole dose curve; as a rule, active = well fitted cell-killing curve with a large enough effect; inconclusive = small, poorly fitted or top-dose-only effect; inactive = flat fitted curve, though single readings scatter.
REPORTED_PROPERTY: outcome

Cc1ccc(F)c(NC(=O)Nc2ccc(-c3cccc4[nH]nc(N)c34)cc2)c1 :: inactive
Clc1ccc2c(N3CCN(CCCN4CCN(c5ccnc6cc(Cl)ccc56)CC4)CC3)ccnc2c1 :: inactive
O=C(C1CC1)N1CC[C@@H](Cc2n[nH]c(=O)n2-c2ccc(-c3ccc4occc4c3)cc2)C1 :: inactive

###

compounds and their reported viability (% of control)
Test: Viability qHTS for spleen associated tyrosine kinase inhibitor (SYKi) naive MV4-11 cells (AID 1963823); further: nearly all actives have a fitted effect of over 40% in size
Conditions: MV4-11 AML viability, CellTiter-Glo luminescence, 72 h; series mostly up to 45 µM
Results filed as inconclusive are left out. The source made the active and inactive calls. Calls come from the whole dose curve; as a rule, active = well fitted cell-killing curve with a large enough effect; inconclusive = small, poorly fitted or top-dose-only effect, or effect the other way; inactive = no such curve, though single readings can be large or run the other way.

Example entries begin here.
O=P(O)(O)C(O)(Cn1ccnc1)P(=O)(O)O :: 79.2% [at 4.97 µM] (inactive)
C[C@@H]1O[C@@H](O[C@@H]2[C@@H](O)[C@H](O[C@@H]3[C@@H](O)[C@@H](O)[C@H](O[C@H]4[C@H](OC(=O)[C@]56CCC(C)(C)C[C@H]5C5=CCC7[C@@]8(C)C[C@H](O)[C@H](O[C@@H]9O[C@H](C(=O)O)[C@@H](O)[C@H](O)[C@H]9O)[C@@](C)(CO)C8[C@H](O)C[C@@]7(C)[C@]5(C)CC6)OC[C@H](O)[C@@H]4O)O[C@H]3C)OC[C@H]2O)[C@H](O)[C@H](O)[C@H]1O (stereo partly drawn) :: 78.4% [at 9.25 µM] (inactive)
CCn1cc(C(=O)O)c(=O)c2cnc(N3CCCC3)nc21 :: 74.1% [at 9.25 µM] (inactive)
C[C@@H]1O[C@@H](O[C@@H]2[C@@H](O)[C@@H](O)[C@H](O[C@@H]3[C@@H](O)[C@@H](O[C@]4(CO)O[C@H](CO)[C@@H](O)[C@@H]4OC(=O)/C=C/c4ccc(O)cc4)O[C@H](CO)[C@H]3OC(=O)/C=C/c3ccc(O)cc3)O[C@H]2C)[C@H](O)[C@H](O)[C@H]1O :: 81.6% [at 9.25 µM] (inactive)
C=C1CC[C@]2(C(=O)O[C@@H]3O[C@H](CO)[C@@H](O)[C@H](O)[C@H]3O)CC[C@]3(C)C(=CCC4[C@@]5(C)C[C@H](O)[C@@H](O[C@@H]6O[C@H](C(=O)O)[C@@H](O)[C@H](O)[C@H]6O)[C@](C)(C=O)C5CC[C@]43C)C2C1 (stereo partly drawn) :: 68.2% [at 9.25 µM] (inactive)
C[C@@H]1O[C@@H](O[C@H]2[C@H](O[C@H]3[C@H](O[C@H]4CC[C@@]5(C=O)C(CC[C@]6(C)C5CC=C5C7CC(C)(C)C[C@@H](O)[C@]7(C)CC[C@]56C)C4(C)C)O[C@H](C(=O)O)[C@@H](O)[C@@H]3O)OC[C@@H](O)[C@@H]2O)[C@H](O)[C@H](O)[C@H]1O (stereo partly drawn) :: 85.7% [at 9.25 µM] (inactive)
C[C@@H]1O[C@@H](O[C@H]2[C@H](O[C@H]3[C@H](O[C@H]4CC[C@@]5(CO)C(CC[C@]6(C)C5CC=C5C7CC(C)(C)C[C@@H](O)[C@]7(C)CC[C@]56C)C4(C)C)O[C@H](C(=O)O)[C@@H](O)[C@@H]3O)OC[C@@H](O)[C@@H]2O)[C@H](O)[C@H](O)[C@H]1O (stereo partly drawn) :: 63.5% [at 9.25 µM] (inactive)

Continue with the next compound.
[in] Look up viability (% of control) for this compound: CC1(C)CC[C@]2(C(=O)O[C@@H]3O[C@H](CO[C@@H]4O[C@H](CO)[C@@H](O)[C@H](O)[C@H]4O)[C@@H](O)[C@H](O[C@@H]4O[C@H](CO)[C@@H](O)[C@H](O)[C@H]4O)[C@H]3O)CC[C@]3(C)C(=CCC4[C@@]5(C)CC[C@H](O[C@@H]6OC[C@@H](O)[C@H](O)[C@H]6O)[C@@](C)(C(=O)O)C5CC[C@]43C)[C@@H]2C1 (stereo partly drawn)
[out] 83.1% [at 9.25 µM] (inactive)
